Measured values drawn from ChEMBL document CHEMBL4402561 for this set.

The following are reported Ki results, target or system Carbonic anhydrase 7 (Homo sapiens).
readout_name: Ki (nM)

These solved cases illustrate the format of a correct answer.
| given_smiles | test_value |
| --- | --- |
| NS(=O)(=O)c1ccc(NC(=O)/C(Cl)=N/Nc2ccc(Br)cc2)cc1 | 1030 |
| NS(=O)(=O)c1ccc(NC(=O)/C(Cl)=N/Nc2ccccc2)cc1 | 68.1 |
| CC(=O)/C(=C\c1ccc(F)cc1Cl)C(=O)Nc1ccc(S(N)(=O)=O)cc1 | 23.5 |

(A) CC(=O)/C(=N\Nc1ccc(Cl)cc1)C(=O)Nc1ccc(S(N)(=O)=O)cc1
(B) CC(=O)/C(=N\Nc1ccc(F)cc1)C(=O)Nc1ccc(S(N)(=O)=O)cc1
In: Recorded Ki values differ for A and B ; which one is higher? Output the label that corresponds to your choice.
Out: B
(B: 3320 nM, A: 1690 nM)

* * *

For reference, Ki measured on Carbonic anhydrase 7 (Homo sapiens, UniProt P43166):
readout_name: Ki (nM)

| given_smiles | readout_name | uom | test_value |
| --- | --- | --- | --- |
| CC(=O)/C(=C\c1cccs1)C(=O)Nc1ccc(S(N)(=O)=O)cc1 | Ki | nM | 5.3 |

(1) COc1ccc(N/N=C(\C(C)=O)C(=O)Nc2ccc(S(N)(=O)=O)cc2)cc1OC
(2) CC(=O)/C(=C\c1ccccc1)C(=O)Nc1ccc(S(N)(=O)=O)cc1
(3) CC(=O)/C(=C\c1ccccc1Cl)C(=O)Nc1ccc(S(N)(=O)=O)cc1
In: Provide the items ranked by increasing Ki. Please respond with the labels ordered as the question requires.
Out: 3, 1, 2
(3: 2.9 nM, 1: 4.4 nM, 2: 44.4 nM)
